# Read-out: Vascular cell adhesion molecule 1 (VCAM1), VCAM1 (gene 7412)
# test protocol: BSK_4H_VCAM1: BioMAP Diversity Plus: 4H Assay for Vascular cell adhesion molecule 1 (VCAM1) Biomarker Activity (AID 2283033)
# assay context: primary human endothelial cells (HUVEC); actives raise or lower the signal
Activity calls are given as the source filed them. How the source made its calls: active means hit-call score of the fitted dose curve at least 0.9, where 1 is the maximum; inactive means score below 0.9.
Outcomes: active, inactive

compound | assigned category
CC1COc2ccccc2N1C(=O)C(Cl)Cl (configuration not stated) | active
C=CCOC(=O)CCC1CCCCC1 | inactive
O=C(O)c1cn(C2CC2)c2cc(N3CCNCC3)c(F)cc2c1=O | inactive
O=C(O)c1ccc([N+](=O)[O-])cc1 | inactive
OC1OC[C@@H](O)[C@H](O)[C@H]1O (some centres not stated) | inactive
c1ccc2c(c1)c1cccc3ccc4cccc2c4c31 | inactive
BrC1CCC(Br)C(Br)CCC(Br)C(Br)CCC1Br (configuration not stated) | active

* * *

# measured target: Hypoxia-inducible factor 1-alpha (Homo sapiens)
# test protocol: ATG_HIF1a_CIS: Attagene CIS-FACTORIAL HepG2 Assay for human Hypoxia Inducible Factor 1 (HIF1A) (AID 2282951)
# assay context: HepG2 Attagene cis-factorial HIF1a reporter transcription; actives raise or lower the signal
The source made the active and inactive calls. The calls were made as follows: active = hit-call score of the fitted dose curve at least 0.9, where 1 is the maximum; inactive = score below 0.9.
Outcomes: YES (active), NO (inactive)

compound | assigned category
CC(=O)/C=C/C1=C(C)CCCC1(C)C | NO
O=C1C(c2[nH]c3ccc(S(=O)(=O)O)cc3c2O)=Nc2ccc(S(=O)(=O)O)cc21 | NO
C[Si](O[Si](C)(C)C)O[Si](C)(C)C | NO
CCCC[n+]1ccccc1 | NO
CCCCCCCCCCCCCCCC(=O)O | NO
c1cc(C(c2ccc(OCC3CO3)cc2)c2ccc(OCC3CO3)cc2)ccc1OCC1CO1 (centres undefined) | YES
CCN(CC)c1ccc2c(-c3ccccc3C(=O)O)c3ccc(=[N+](CC)CC)cc-3oc2c1 | YES
O=C(O)c1cccc([N+](=O)[O-])c1 | NO
COC(=O)c1ccc(C)cc1 | NO
CCCCCNCCCCC | NO
CCCCCC(=O)OCCc1ccccc1 | NO
CCCCC/C=C/C=C/C=O | YES
CCCCCCCCCCCCCC(=O)O | NO
O=C(OCc1ccccc1)C(=O)OCc1ccccc1 | NO
O=C(O)CCCCCCCCCCC(=O)O | NO
O=S(=O)(O)c1cccc2c(S(=O)(=O)O)cccc12 | NO
CC(C)c1cccc(O)c1 | NO
OCC(CO)(CO)COCC(CO)(CO)CO | NO
CC(C)OP(=O)(CP(=O)(OC(C)C)OC(C)C)OC(C)C | NO
CC(C)=CCC/C(C)=C/COC=O | NO
CC1(C)CCC(C)(C)c2cc(C(=O)Nc3ccc(C(=O)O)cc3)ccc21 | YES
COCCCOc1ccnc(CS(=O)c2nc3ccccc3[nH]2)c1C (centres undefined) | NO
CCO[Si](CCCS)(OCC)OCC | YES
CCCCCC(CO)CCC (centres undefined) | NO
CCC(=O)OCc1ccccc1 | NO
CC(C)C(C)(C)C(C)(C)C(C)(C)S | NO
O=Cc1ccc(Cl)c([N+](=O)[O-])c1 | YES
CC(C=O)Cc1ccc(C(C)C)cc1 (centres undefined) | NO
COc1ccc(O)cc1 | NO
